Target: T1, Human CD137 ECD (human)
T1 construct: entry includes C-terminal His-tag and biotin acceptor peptide; also called human CD137 extracellular domain; 4-1BB
T1 sequence (chain, as listed by the source limits assumed): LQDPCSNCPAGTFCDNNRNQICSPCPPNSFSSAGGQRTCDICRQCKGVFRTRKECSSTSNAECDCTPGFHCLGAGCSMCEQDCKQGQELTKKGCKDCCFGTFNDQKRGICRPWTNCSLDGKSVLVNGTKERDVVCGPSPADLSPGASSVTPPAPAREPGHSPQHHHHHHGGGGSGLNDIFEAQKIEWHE
Experiment: Biacore SPR, vs parent H183/L072
measured.quantity: fold change of affinity (fold)
Respond with the bare value in fold.

Sample records with fold change of affinity:
binder	fold change of affinity [fold]
H183/L072 VL V27cR (antibody, name in Kabat numbering, V domains shown, Dual-Ig) VH: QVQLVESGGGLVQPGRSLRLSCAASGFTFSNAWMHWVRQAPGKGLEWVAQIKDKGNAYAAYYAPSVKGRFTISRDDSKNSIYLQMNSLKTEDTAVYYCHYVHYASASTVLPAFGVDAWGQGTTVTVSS VL: DIVMTQSPLSLPVTPGEPASISCQASQELRHMNRNTYLHWYQQKPGQAPRLLIYKVSNRFPGVPDRFSGSGSGTDFTLKISRVEAEDVGVYYCAQGTSVPFTFGQGTKLEIK	0.9
H183/L072 VL S93Q (antibody, name in Kabat numbering, V domains shown, Dual-Ig) VH: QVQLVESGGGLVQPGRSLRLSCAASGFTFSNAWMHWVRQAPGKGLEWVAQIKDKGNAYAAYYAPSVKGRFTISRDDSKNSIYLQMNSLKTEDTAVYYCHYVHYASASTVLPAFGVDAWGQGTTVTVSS VL: DIVMTQSPLSLPVTPGEPASISCQASQELVHMNRNTYLHWYQQKPGQAPRLLIYKVSNRFPGVPDRFSGSGSGTDFTLKISRVEAEDVGVYYCAQGTQVPFTFGQGTKLEIK	1.1

Endpoint output: fold change of affinity of H183/L072 VL N53F (antibody, name in Kabat numbering, V domains shown, Dual-Ig) VH: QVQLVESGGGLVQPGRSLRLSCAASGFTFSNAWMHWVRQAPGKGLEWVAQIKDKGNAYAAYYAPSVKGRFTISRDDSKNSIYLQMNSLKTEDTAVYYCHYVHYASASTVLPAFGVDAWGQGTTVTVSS VL: DIVMTQSPLSLPVTPGEPASISCQASQELVHMNRNTYLHWYQQKPGQAPRLLIYKVSFRFPGVPDRFSGSGSGTDFTLKISRVEAEDVGVYYCAQGTSVPFTFGQGTKLEIK . Value?
0.3
